All values here come from BindingDB's records for doi:10.1038/nchembio.2087.

- Test System: Lysine-specific demethylase 4C (Homo sapiens)
- Sequence (Q9H3R0 whole entry): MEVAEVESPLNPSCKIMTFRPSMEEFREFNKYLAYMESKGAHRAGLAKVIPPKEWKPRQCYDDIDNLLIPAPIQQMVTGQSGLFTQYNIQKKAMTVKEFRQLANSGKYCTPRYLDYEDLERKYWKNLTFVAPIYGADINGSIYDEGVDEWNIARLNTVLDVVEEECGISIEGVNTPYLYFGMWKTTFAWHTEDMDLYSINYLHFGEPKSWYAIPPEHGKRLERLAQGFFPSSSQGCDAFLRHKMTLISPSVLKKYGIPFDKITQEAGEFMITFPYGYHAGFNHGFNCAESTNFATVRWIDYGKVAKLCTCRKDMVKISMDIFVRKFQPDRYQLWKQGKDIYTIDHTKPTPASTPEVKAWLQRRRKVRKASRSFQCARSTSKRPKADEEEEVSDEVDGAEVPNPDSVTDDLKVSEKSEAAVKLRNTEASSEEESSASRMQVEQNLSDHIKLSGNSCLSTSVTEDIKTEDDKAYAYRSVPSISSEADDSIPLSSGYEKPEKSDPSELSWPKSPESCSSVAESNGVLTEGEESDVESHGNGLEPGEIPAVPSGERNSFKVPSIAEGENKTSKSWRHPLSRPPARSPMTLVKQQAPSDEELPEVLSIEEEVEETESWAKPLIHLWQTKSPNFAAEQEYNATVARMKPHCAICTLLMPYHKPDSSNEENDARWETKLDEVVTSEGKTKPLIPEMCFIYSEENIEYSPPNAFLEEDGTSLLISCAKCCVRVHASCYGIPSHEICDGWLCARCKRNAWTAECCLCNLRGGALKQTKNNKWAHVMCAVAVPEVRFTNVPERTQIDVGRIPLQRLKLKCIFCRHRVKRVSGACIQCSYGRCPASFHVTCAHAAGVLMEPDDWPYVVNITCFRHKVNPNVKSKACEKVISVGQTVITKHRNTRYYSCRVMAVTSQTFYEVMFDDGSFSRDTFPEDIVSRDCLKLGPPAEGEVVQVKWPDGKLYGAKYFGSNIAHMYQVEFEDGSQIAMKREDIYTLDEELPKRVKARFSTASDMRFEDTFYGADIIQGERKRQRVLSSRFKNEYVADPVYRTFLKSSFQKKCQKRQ
Listing of entries alongside the reported IC50.
Experimental Endpoint: IC50 (µM)

smiles_string=O=C(O)CCNc1cc(N2CCc3ccccc3CC2)nc(-c2ccccn2)n1 units_symbol=µM value=64.9
smiles_string=O=C(O)CNC(=O)C(=O)O units_symbol=µM value=41.5

====

- Test System: Lysine-specific demethylase 3A (Homo sapiens)
- Sequence (Q9Y4C1 whole entry): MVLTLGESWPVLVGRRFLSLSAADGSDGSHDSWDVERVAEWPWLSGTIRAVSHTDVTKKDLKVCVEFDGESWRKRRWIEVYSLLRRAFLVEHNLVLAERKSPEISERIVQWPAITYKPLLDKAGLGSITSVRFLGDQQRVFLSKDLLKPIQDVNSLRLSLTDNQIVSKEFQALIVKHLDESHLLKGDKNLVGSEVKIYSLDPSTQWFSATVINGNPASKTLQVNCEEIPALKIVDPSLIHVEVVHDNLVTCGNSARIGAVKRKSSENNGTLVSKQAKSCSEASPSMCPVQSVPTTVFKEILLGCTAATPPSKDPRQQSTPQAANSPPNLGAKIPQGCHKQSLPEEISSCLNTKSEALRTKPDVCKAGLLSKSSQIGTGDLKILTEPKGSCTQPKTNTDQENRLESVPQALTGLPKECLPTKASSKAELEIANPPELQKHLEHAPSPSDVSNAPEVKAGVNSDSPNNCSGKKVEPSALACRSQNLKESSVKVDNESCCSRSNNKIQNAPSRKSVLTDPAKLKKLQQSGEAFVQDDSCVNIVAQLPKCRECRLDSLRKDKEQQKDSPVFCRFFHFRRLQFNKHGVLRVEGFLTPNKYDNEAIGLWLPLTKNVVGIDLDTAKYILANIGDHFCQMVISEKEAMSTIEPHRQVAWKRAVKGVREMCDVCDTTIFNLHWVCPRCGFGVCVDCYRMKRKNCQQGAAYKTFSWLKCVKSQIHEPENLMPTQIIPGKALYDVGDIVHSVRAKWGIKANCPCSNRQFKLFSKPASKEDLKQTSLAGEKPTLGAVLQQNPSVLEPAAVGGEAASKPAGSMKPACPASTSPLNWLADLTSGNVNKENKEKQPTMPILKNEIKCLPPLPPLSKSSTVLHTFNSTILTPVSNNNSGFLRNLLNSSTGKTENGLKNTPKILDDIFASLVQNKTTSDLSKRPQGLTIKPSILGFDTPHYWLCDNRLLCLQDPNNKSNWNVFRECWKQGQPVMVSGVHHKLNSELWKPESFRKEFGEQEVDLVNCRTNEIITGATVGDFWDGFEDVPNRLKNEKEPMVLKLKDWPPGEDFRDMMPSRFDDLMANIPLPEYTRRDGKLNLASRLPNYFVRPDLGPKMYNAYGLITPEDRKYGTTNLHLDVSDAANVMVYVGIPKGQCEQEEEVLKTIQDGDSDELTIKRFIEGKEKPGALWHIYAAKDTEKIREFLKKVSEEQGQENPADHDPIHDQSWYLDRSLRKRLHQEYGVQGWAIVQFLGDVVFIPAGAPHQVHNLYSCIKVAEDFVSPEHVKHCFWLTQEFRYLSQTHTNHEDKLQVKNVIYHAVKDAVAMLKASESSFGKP
Experimental Endpoint: IC50 (µM)

compound="O=c1[nH]c(Oc2cnn(Cc3ccccc3)c2)nc2cnccc12 [GSK467]" value=33.9

====

IC50, Lysine-specific demethylase 5D [1-775] (Homo sapiens): measured values
Experimental Endpoint: IC50 (nM)

molecule="O=C(O)CCNc1cc(N2CCc3ccccc3CC2)nc(-c2ccccn2)n1 [GSK-J1]" experimental_endpoint=IC50 units_symbol=nM value=1500
molecule=O=C(O)CNC(=O)C(=O)O experimental_endpoint=IC50 units_symbol=nM value=5800
molecule="O=C(O)c1ccnc(C(=O)O)c1 [pyridine-2,4-dicarboxylic acid]" experimental_endpoint=IC50 units_symbol=nM value=2500
molecule="O=c1[nH]c(Oc2cnn(Cc3ccccc3)c2)nc2cnccc12 [GSK467]" experimental_endpoint=IC50 units_symbol=nM value=77
